From various publications: Ki for Protease (Human immunodeficiency virus 1).
Please assign a class to every record based on measured Ki, with ranges class A: < 0.1 nM; class B: ≥ 0.1 nM and < 10 nM; class C: ≥ 10 nM

Cc1n[nH]c2cc(CN3C(=O)N(Cc4cccc(N)c4)C(Cc4ccccc4)C(O)C3CCc3ccccc3)ccc12 (centres undefined): class B
COC(=O)N[C@H](C(=O)NN(CCC[C@@](O)(Cc1ccccc1)C(=O)N[C@H]1c2ccccc2C[C@H]1O)Cc1ccc(-c2ccccc2)cc1)C(C)(C)C: class B
COC(=O)N[C@H](C(=O)NN(CCC[C@@](O)(Cc1ccccc1)C(=O)N[C@H]1c2ccccc2C[C@H]1O)Cc1ccccc1)C(C)(C)C: class B

Query :: Which category does the recorded Ki put O=C1NC(CCc2ccccc2)C(O)C(Cc2ccccc2)N1Cc1ccccc1 (centres undefined) in?
Result :: class C

Query :: Which category does the recorded Ki put COC(=O)N[C@H](C(=O)NN(CC[C@@](O)(Cc1ccccc1)C(=O)N[C@H]1c2ccccc2C[C@H]1O)Cc1ccc(-c2cc(F)cc(F)c2)cc1)C(C)(C)C in?
Result :: class C

Query :: Which category does the recorded Ki put C[C@H]1Cc2cc(F)ccc2S(=O)(=O)N(CC(O)C(Cc2ccccc2)NC(=O)[C@@H]2CN(c3ccccc3)C(=O)O2)C1 (single isomer, unassigned) in?
Result :: class C

Query :: Which category does the recorded Ki put CC(=O)N[C@H](C(=O)N[C@H](C(=O)N[C@@H](CC(C)C)[C@@H](O)CC(=O)N[C@@H](C)C(=O)N[C@@H](CC(C)C)C(O)CC(=O)O)C(C)C)C(C)C (single isomer, unassigned) in?
Result :: class C

Query :: Which category does the recorded Ki put COc1ccc2c(c1)C[C@H](C)CN(C[C@@H](O)[C@H](Cc1ccccc1)NC(=O)OC(C)(C)C)S2(=O)=O in?
Result :: class C

###

From various publications: pKi for Protease (Human immunodeficiency virus 1).
pKi: −log10 of the molar value.
Outcome: class 1 for pKi of at least 10; class 0 for anything lower.

CC(=O)N[C@H](C(=O)N[C@H](C(=O)N[C@@H](CC(C)C)[C@@H](O)CC(=O)N[C@@H](C)C(=O)N[C@@H](CC(C)C)[C@@H](O)CC(=O)O)C(C)C)C(C)C: class 1
COc1ccc(S(=O)(=O)N(CC(C)C)C[C@@H](O)[C@H](Cc2cccc(-c3cccc(OC)c3)c2)NC(=O)O[C@H]2CO[C@H]3OCC[C@H]32)cc1: class 1

API: the following record is the query input.
Query :: hey, is pKi for this one >= 10? CNC(=O)[C@@H](NC(=O)[C@@](O)(CCN(Cc1ccc(Br)cc1)NC(=O)[C@@H](NC(=O)OC)C(C)(C)C)Cc1ccccc1)C(C)(C)C
Result :: class 0

###

From various publications: Ki for Protease (Human immunodeficiency virus 1).

Solved entries (count: 2):
O=C1CC(c2ccccc2)CC2=C1C(c1ccccc1)Nc1ccccc1N2 (mixture of isomers): ≤ 12 nM
CC(C)CN(C[C@@H](O)[C@H](Cc1ccc(-c2ccncc2)cc1)NC(=O)O[C@H]1CCOC1)S(=O)(=O)c1ccc(N)cc1: 0.086 nM

Now, please, on to the next compound.
Query :: For CC(C)CN(C[C@@H](O)[C@H](Cc1ccccc1)NC(=O)O[C@@H]1C[C@@H]2[C@H](O)CO[C@@H]2C1)S(=O)(=O)c1ccc(CO)cc1 , what is its reported Ki?
Result :: 0.06 nM
